meta.source: ChEMBL document CHEMBL1806416

system: HL-60; assay: Cytotoxicity against human HL60 cells after 2 days; format: functional, cell-based; details: HL-60, 48 h
pIC50: −log10 of the molar value.
Class Satisfied: pIC50 at least 5. Class Not satisfied: pIC50 below 5.

c1coc(-c2cc(-c3ccco3)c3c(n2)-c2ccccc2OC3)c1 : Satisfied

Request: Is the recorded value of pIC50 equal to or greater than 5 for this compound? "c1ccc(-c2cc(-c3cccnc3)c3c(n2)-c2ccccc2OC3)nc1"
Result: Not satisfied

Request: Is the recorded value of pIC50 equal to or greater than 5 for this compound? "c1ccc(-c2cc(-c3ccccc3)c3c(n2)-c2ccccc2OC3)cc1"
Result: Not satisfied

Request: Is the recorded value of pIC50 equal to or greater than 5 for this compound? "c1ccc(-c2cc(-c3ccsc3)nc3c2COc2ccccc2-3)nc1"
Result: Not satisfied

Request: Is the recorded value of pIC50 equal to or greater than 5 for this compound? "c1ccc(-c2cc(-c3cccs3)c3c(n2)-c2ccccc2OC3)cc1"
Result: Not satisfied

Request: Is the recorded value of pIC50 equal to or greater than 5 for this compound? "c1ccc(-c2cc(-c3ccco3)nc3c2COc2ccccc2-3)cc1"
Result: Satisfied
